# Test system: KM12 colon
# measurement.protocol: NCI tumour cell line growth inhibition, 48 h
readout.kind: TGI

These solved cases illustrate the format of a correct answer.
compound	readout.kind	result
S=C(NCc1ccccc1)c1nc[nH]c1C(=S)NCc1ccccc1	TGI	20 µM
CCSc1n/c(=C\c2ccco2)c2nnnn12	TGI	> 100 µM
NS(=O)(=O)c1nn2c(Br)c(-c3ccccc3)nc2s1	TGI	21.3 µM
CC(C)(C)OC(=O)NCC(=O)OCc1ccccc1	TGI	> 100 µM
O=NN(CCCl)C(=O)NC1CCSc2ccccc21 (configuration not stated)	TGI	> 100 µM
CC(=O)OCCn1cnc2nc(Nc3ccccc3)nc(Cl)c21	TGI	> 100 µM
CC1=Nc2ccccc2C1C(Cc1ccccc1N)c1c(C)[nH]c2ccccc12 (configuration not stated)	TGI	31.7 µM
Oc1[nH]c2ccccc2c1N=Nc1ccccc1Cl	TGI	> 100 µM
COc1cc(C2c3cc4c(cc3OC(N3CCCC3)C2C)OCO4)cc(OC)c1O (configuration not stated)	TGI	> 100 µM
CC1OC2CC(=O)OC2C2=C1C(=O)c1c(O)cccc1C2=O (configuration not stated)	TGI	0.392 µM

For the compound COc1ccc(/C=C(/C(=O)c2ccc(Cl)cc2)N2C=CC=CC2=C(C#N)C#N)cc1OC , what TGI is on record?
42.1 µM

For the compound CC1=C(C#N)C(C#N)(C#N)C(NN(C)C)C1 (configuration not stated) , what TGI is on record?
31.8 µM

###

# System: SN12C renal
# measurement.protocol: NCI tumour cell line growth inhibition, 48 h
Note that class boundaries on TGI are low interval: < 20 µM; middle interval: ≥ 20 µM and < 40 µM; high interval: ≥ 40 µM

compound	study.system	label.value
COc1ccc(N=C2SC(=N/N=c3\sc4ccccc4n3C)SC2=Nc2ccc(OC)cc2)cc1	SN12C renal	high interval
CC(C)c1ccc(Nc2ccc3c(OCCCN4CCN(C)CC4)cccc3n2)cc1	SN12C renal	middle interval
O=[N+]([O-])c1cc2oc(COc3ccccc3)nc2cc1Cl	SN12C renal	high interval

Shifting focus to the compound that follows.
Looking at CCOC(=O)/C=C/C(C(=O)/C=C/c1ccc(OC2CCCCO2)c(OC)c1)=C(O)\C=C\c1ccc(OC2CCCCO2)c(OC)c1 (stereo unspecified) , which class would you pick?
low interval

###

# System: IGROV1 ovarian
# measurement.protocol: NCI tumour cell line growth inhibition, 48 h
readout.kind: TGI

compound	result
COCCOCc1nc(C#N)c(N)o1	> 100 µM
Ic1ccc(Nc2nc3nonc3nc2Nc2ccc(I)cc2)cc1	> 100 µM
O=S(=O)(Nc1cc(F)cc(Cl)c1)c1ccc(-c2cnc(C3CC3)o2)cc1	17.5 µM

Notebook entry, IGROV1 ovarian assay: TGI of O=C1CCCC/C(=C/c2ccccc2)N1 = ?
> 100 µM

Notebook entry, IGROV1 ovarian assay: TGI of COC(=O)C(C(=O)C(=O)Nc1cccc(OC)c1)c1cnc2ccccc2n1 (stereo unspecified) = ?
> 100 µM

Notebook entry, IGROV1 ovarian assay: TGI of CCOC(=O)C1=CC(C)(C(=O)OCC)Nc2c(nc(OC)n(C)c2=O)N1 (stereo unspecified) = ?
> 10 µM

Notebook entry, IGROV1 ovarian assay: TGI of Cc1cc(N(CCC#N)CCC#N)ccc1/C(N=Nc1ccc([N+](=O)[O-])cc1)=N\NC(=O)c1cc(Cl)ccc1C(=O)c1ccccc1 = ?
17.9 µM

Notebook entry, IGROV1 ovarian assay: TGI of Cc1nc2ccccc2c(=O)n1NC(=O)c1ccc(CS)cc1 = ?
27.2 µM

Notebook entry, IGROV1 ovarian assay: TGI of CCN(CC)c1c(N(CC)CC)c(=O)c1=O = ?
8.01 µM

Notebook entry, IGROV1 ovarian assay: TGI of COc1ccc2c(c1)C(C)Cc1c(Cl)ncnc1N2C (stereo unspecified) = ?
> 69.6 µM

Notebook entry, IGROV1 ovarian assay: TGI of COC(C)(C)C1=CCC(C)CC1 (stereo unspecified) = ?
> 100 µM

###

TGI values by entry
# Tested on: COLO 205 colon
# measurement.protocol: NCI tumour cell line growth inhibition, 48 h
Numeric answer only, unit µM assumed.

compound	measurement.unit	numeric.value
COc1ccc2c(c1)C(C)Cc1c(Cl)ncnc1N2C (stereo not given)	µM	0.777
CC(C)(C)C(=O)OCOP(=O)(OCOC(=O)C(C)(C)C)C1CCCN(O)C1=O (stereo not given)	µM	3.64
Cc1cc(Br)cc(C)c1NC(=O)C(=O)C(C(=O)c1ccc2ccccc2c1)C1OC(=O)c2ccccc21 (stereo not given)	µM	50.9

Below: the item to evaluate.
For the compound C/C(=C\CCc1ccoc1)CC/C=C(\C)CCCC1=CC(=O)OC1 , what TGI is on record?
23.1

###

TGI values by entry
# Test system: SF-539 CNS
# measurement.protocol: NCI tumour cell line growth inhibition, 48 h
Numeric answer only, unit µM assumed.

For the compound CCCCCCCCCCCCCCCCCCNc1ccn(C2OC(COP(=O)(O)OCC3OC(n4cc(C)c(=O)[nH]c4=O)CC3O)C(O)C2O)c(=O)n1 (stereo not given) , what TGI is on record?
31.5

For the compound O=[N+]([O-])c1cc2oc(COc3ccccc3)nc2cc1Cl , what TGI is on record?
45.8

For the compound NS(=O)(=O)c1nn2c(Br)c(-c3ccccc3)nc2s1 , what TGI is on record?
3.95

###

# System: LOX IMVI melanoma
# measurement.protocol: NCI tumour cell line growth inhibition, 48 h
readout.kind: TGI

For the compound COc1ccc(C(=O)Sc2c(-c3ccccc3)c(=O)n(-c3ccccc3)c(=S)n2-c2ccccc2)cc1 , what TGI is on record?
> 100 µM

###

TGI values by entry
# System: SK-MEL-2 melanoma
# measurement.protocol: NCI tumour cell line growth inhibition, 48 h

These solved cases illustrate the format of a correct answer.
molecule	TGI
CC(C)(C)[SiH]12(OC(C(F)(F)F)(C(F)(F)F)c3ccccc31)OC(C(F)(F)F)(C(F)(F)F)c1ccccc12	31.1 µM
O=C1OC(c2ccccc2)=N/C1=C/C=C/c1ccco1	> 100 µM
COCCOCc1nc(C#N)c(N)o1	> 100 µM
C[As](C)SC1OC(CO)C(O)C1O (stereo not given)	2.92 µM
CCOC(=O)C1=CC(C)(C(=O)OCC)Nc2c(nc(OC)n(C)c2=O)N1 (stereo not given)	> 10 µM
NC(=NCCCOc1ccc(Cl)cc1)Nc1ccc(C(F)(F)F)cc1	3.88 µM
Clc1coc2nc3ccccc3c(Nc3ccc4c(c3)OCO4)c12	> 100 µM
C[C@@H]1C[C@H]2[C@@H]3CCC4=CC(=O)C=C[C@]4(C)[C@@]3(Cl)[C@@H](Cl)C[C@]2(C)[C@@]1(O)C(=O)COP(=O)(O)O	> 100 µM
Cc1ccc(/C=N/n2c(=O)[nH]c3ccccc3c2=O)cc1	> 100 µM
O=C1c2ccccc2C2(Br)C(=O)c3ccccc3C12 (stereo not given)	> 100 µM

For the molecule Cc1ccc(S(=O)(=O)N/N=C/C(=C/c2ccc(Cl)cc2)CC(/C=N/NS(=O)(=O)c2ccc(C)cc2)=C\c2ccc(Cl)cc2)cc1 , what TGI is on record?
24.9 µM

For the molecule COC(=O)/C=C/c1cc(O)c2oc(-c3ccc(O)c(O)c3)c(C(=O)OC)c2c1 , what TGI is on record?
13.2 µM

For the molecule C/C(=C\CCc1ccoc1)CC/C=C(\C)CCCC1=CC(=O)OC1 , what TGI is on record?
22.6 µM

For the molecule C=C(F)C(=O)N1CCN(c2nc(OC[C@@H]3CCCN3C)nc3c2CCN(c2cccc4cccc(Cl)c24)C3)C[C@@H]1CC#N , what TGI is on record?
2.8 µM

For the molecule Clc1c(Cl)c(Cl)c2nn(C3CCCO3)nc2c1Cl (stereo not given) , what TGI is on record?
> 100 µM

For the molecule CC(C)(C)c1cc(C(P(=O)(c2ccccc2)c2ccccc2)P(=O)(c2ccccc2)c2ccccc2)cc(C(C)(C)C)c1O , what TGI is on record?
3.88 µM

For the molecule O=c1c2ccccc2[se]n1-c1cccnc1 , what TGI is on record?
47.9 µM

For the molecule C=CC1CC12C(=O)C1OC2(C)C2C(=O)c3cc4ccccc4cc3C(=O)C12 (stereo not given) , what TGI is on record?
> 100 µM

For the molecule Cc1ccccc1N1C(=O)/C(=C/c2ccc(N(CCC#N)CCC#N)cc2)N=C1c1cc([N+](=O)[O-])ccc1Cl , what TGI is on record?
> 100 µM

For the molecule CC(C)c1ccc(Nc2ccc3c(OCCCN4CCN(C)CC4)cccc3n2)cc1 , what TGI is on record?
36.5 µM

###

# Test system: SR leukemia
# measurement.protocol: NCI tumour cell line growth inhibition, 48 h
TGI values by entry
Numeric answer only, unit µM assumed.

compound	readout.kind	numeric.value
CC(=O)OC1Oc2ccccc2-c2oc(=O)c(-c3cc(=O)oc4cc(O)ccc34)cc21 (stereo not given)	TGI	6.5
O=S(=O)(c1ccccc1)n1c2cc3cccnc3nc2c2cccnc21	TGI	30.4
O=C(OCc1ccc2cccc(O)c2n1)N1CCN(C(=O)c2cc3cc(F)ccc3[nH]2)CC1	TGI	1.6
C=CC(Br)(CBr)CCC(Cl)C(C)C (stereo not given)	TGI	2.38

Below: the item to evaluate.
For the compound CC(=O)c1c2c(cc3c1CC1(Cc4ccccc4C1=O)C3)CCC2 (stereo not given) , what TGI is on record?
47.9
